Target Desc: Tissue alpha-L-fucosidase (Bos taurus)
Sequence (Q2KIM0 whole entry): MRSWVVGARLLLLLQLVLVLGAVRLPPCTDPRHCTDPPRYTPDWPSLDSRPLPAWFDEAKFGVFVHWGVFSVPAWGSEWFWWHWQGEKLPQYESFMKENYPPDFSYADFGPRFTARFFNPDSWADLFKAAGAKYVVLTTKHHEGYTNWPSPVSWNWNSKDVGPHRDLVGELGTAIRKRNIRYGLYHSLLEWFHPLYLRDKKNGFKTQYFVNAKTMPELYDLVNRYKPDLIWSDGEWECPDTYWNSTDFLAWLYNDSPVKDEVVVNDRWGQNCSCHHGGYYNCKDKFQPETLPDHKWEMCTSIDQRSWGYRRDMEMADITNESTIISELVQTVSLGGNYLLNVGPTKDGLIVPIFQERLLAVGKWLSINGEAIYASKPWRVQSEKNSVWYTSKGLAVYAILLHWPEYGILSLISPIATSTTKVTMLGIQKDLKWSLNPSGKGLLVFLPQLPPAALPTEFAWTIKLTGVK
Metric: Ki (nM)

1. C[C@@H]1NC(O)[C@@H](O)[C@H](O)[C@@H]1O (stereo partly drawn): 1

I. C[C@@H]1NC[C@@H](O)[C@H](O)[C@@H]1O [DEOXYFUCONOJIRIMYCIN]
II. C[C@H]1NC[C@H](O)[C@@H](O)[C@H]1O
Enquiry: // pick min by Ki: I , II Which one? Tell me its label.
Return: I
